Assay: qHTS assay to identify small molecule antagonists of the progesterone receptor (PR) signaling pathway - cell viability counter screen (AID 1346798); also: nearly all actives have a fitted effect of over 50% in size
Details: PR-UAS-bla HEK293T viability, CellTiter-Glo luminescence, 16 h; series mostly up to 92.4 µM
Inconclusive results are not listed. Activity calls are given as the source filed them. Calls follow the shape of the dose curve; as a rule, active = well fitted cell-killing curve with a large enough effect in the repeat runs; inconclusive = weak or mixed curves, or effect the other way; inactive = no such curve, though single readings can be large or run the other way.
// allowed return values: active, inactive

Query string: Could you please tell me the result logged for `C[C@@H]1CC(=O)NN=C1c1ccc(NN=C(C#N)C#N)cc1` in this assay?
Result string: inactive

Query string: Could you please tell me the result logged for CC1CC(C)C(=O)C1=O (configuration not stated) in this assay?
Result string: inactive

Query string: Could you please tell me the result logged for `c1csc(SSc2cccs2)c1` in this assay?
Result string: active

Query string: Could you please tell me the result logged for `Cc1cc(C)cc(N)c1` in this assay?
Result string: inactive

Query string: Could you please tell me the result logged for CN1CCCC(CC2c3ccccc3Sc3ccccc32)C1 (configuration not stated) in this assay?
Result string: active

Query string: Could you please tell me the result logged for C=C1CCC2CC1C2(C)C (configuration not stated) in this assay?
Result string: inactive

Query string: Could you please tell me the result logged for CCC1NC(=O)c2cc(S(N)(=O)=O)c(Cl)cc2N1 (configuration not stated) in this assay?
Result string: inactive

Query string: Could you please tell me the result logged for `Cc1cc(C)c(N)cc1C` in this assay?
Result string: inactive

Query string: Could you please tell me the result logged for `NC(=O)c1ccncc1` in this assay?
Result string: inactive

Query string: Could you please tell me the result logged for `CC(=O)NC1(c2cccc(F)c2)CCN(CC[C@@]2(c3ccc(Cl)c(Cl)c3)CN(c3ccccc3)C(=O)CO2)CC1` in this assay?
Result string: active

Query string: Could you please tell me the result logged for `Oc1c(I)cc(I)c2cccnc12` in this assay?
Result string: inactive

Query string: Could you please tell me the result logged for `COc1cc(Nc2c(C#N)cnc3cc(OCCCN4CCN(C)CC4)c(OC)cc23)c(Cl)cc1Cl` in this assay?
Result string: inactive

Query string: Could you please tell me the result logged for `C[C@@H]1CN(CCCn2c3ccccc3c3ccccc32)C[C@H](C)N1` in this assay?
Result string: active

Query string: Could you please tell me the result logged for `C[C@H]1C[C@H](O)c2ccsc2S1(=O)=O` in this assay?
Result string: inactive

Query string: Could you please tell me the result logged for CCC(C)COC(C)=O (configuration not stated) in this assay?
Result string: inactive

Query string: Could you please tell me the result logged for `CC/C=C1/OC(=O)c2ccccc21` in this assay?
Result string: inactive

Query string: Could you please tell me the result logged for CN1CCCN=C1COC(=O)C(O)(c1ccccc1)C1CCCCC1 (configuration not stated) in this assay?
Result string: inactive

Query string: Could you please tell me the result logged for `C1COC1` in this assay?
Result string: inactive

Query string: Could you please tell me the result logged for `O=C1Cc2cc(Cl)ccc2N1` in this assay?
Result string: inactive

Query string: Could you please tell me the result logged for `FC(F)(F)c1ccccc1Cl` in this assay?
Result string: inactive

Query string: Could you please tell me the result logged for `O=C(O)CCC(=O)C(=O)O` in this assay?
Result string: inactive

Query string: Could you please tell me the result logged for `CC(=O)OCC[N+](C)(C)C` in this assay?
Result string: inactive

Query string: Could you please tell me the result logged for `Cc1ccccc1N=C(N)Nc1ccccc1C` in this assay?
Result string: inactive

Query string: Could you please tell me the result logged for `O=C1c2ccccc2C(=O)C1c1nc2ccccc2c(Br)c1O` in this assay?
Result string: inactive

Query string: Could you please tell me the result logged for `NNC(=O)CP(=O)(c1ccccc1)c1ccccc1` in this assay?
Result string: inactive

Query string: Could you please tell me the result logged for `O=c1cc(-c2ccccc2)oc2ccc3ccccc3c12` in this assay?
Result string: active

Query string: Could you please tell me the result logged for `O=C(OC(=O)c1ccccc1)c1ccccc1` in this assay?
Result string: inactive

Query string: Could you please tell me the result logged for `O=C=Nc1cccc(C(F)(F)F)c1` in this assay?
Result string: inactive

Query string: Could you please tell me the result logged for `C[C@@]12CCC[C@H]1[C@@H]1CC[C@H]3C[C@@H](O)CC[C@]3(C)[C@H]1CC2` in this assay?
Result string: active

Query string: Could you please tell me the result logged for `O=C1NC(=O)c2cc([N+](=O)[O-])ccc21` in this assay?
Result string: inactive

Query string: Could you please tell me the result logged for `CCCC(C(=O)OCCN(CC)CC)(c1ccccc1)c1ccccc1` in this assay?
Result string: inactive

Query string: Could you please tell me the result logged for `CC(C)=CCC/C(C)=C/CC/C(C)=C/CCC(=O)OC/C=C(\C)CCC=C(C)C` in this assay?
Result string: inactive

Query string: Could you please tell me the result logged for C=CC(=O)OCC1CC2CC1C1CCC(COC(=O)C=C)C21 (configuration not stated) in this assay?
Result string: inactive

Query string: Could you please tell me the result logged for `CCCCCCCCCI` in this assay?
Result string: inactive

Query string: Could you please tell me the result logged for `CCCCCCCCN` in this assay?
Result string: inactive

Query string: Could you please tell me the result logged for O=C1C(=O)c2ccccc2C(O)=C1C1CCC(c2ccc(Cl)cc2)CC1 (configuration not stated) in this assay?
Result string: inactive

Query string: Could you please tell me the result logged for `O=C(Cn1ccnc1[N+](=O)[O-])NCCO` in this assay?
Result string: inactive
